These measurements were taken from patent US20240182536A1.

Here, each record is paired with measured HEK-blue EC50 (pM) - BP data.
Target: T1, IL-18 receptors on HEK-Blue IL-18 reporter cells (UniProt Q13478 19-541; O95256 20-599, limits assumed)
T1 sequence (looked up) 1: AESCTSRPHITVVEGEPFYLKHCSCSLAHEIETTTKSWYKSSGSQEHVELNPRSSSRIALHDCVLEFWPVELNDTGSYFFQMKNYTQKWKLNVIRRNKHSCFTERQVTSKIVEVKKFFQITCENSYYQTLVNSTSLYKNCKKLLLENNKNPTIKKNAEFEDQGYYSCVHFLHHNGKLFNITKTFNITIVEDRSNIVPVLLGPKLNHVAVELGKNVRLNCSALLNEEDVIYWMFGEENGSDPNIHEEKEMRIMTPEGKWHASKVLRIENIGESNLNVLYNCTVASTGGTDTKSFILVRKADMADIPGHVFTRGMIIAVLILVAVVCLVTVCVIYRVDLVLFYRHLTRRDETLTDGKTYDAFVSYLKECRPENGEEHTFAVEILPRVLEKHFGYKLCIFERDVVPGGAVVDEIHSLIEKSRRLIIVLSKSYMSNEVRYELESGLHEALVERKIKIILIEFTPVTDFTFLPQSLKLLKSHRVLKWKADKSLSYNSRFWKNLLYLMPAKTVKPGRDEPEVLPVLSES
T1 sequence (looked up) 2: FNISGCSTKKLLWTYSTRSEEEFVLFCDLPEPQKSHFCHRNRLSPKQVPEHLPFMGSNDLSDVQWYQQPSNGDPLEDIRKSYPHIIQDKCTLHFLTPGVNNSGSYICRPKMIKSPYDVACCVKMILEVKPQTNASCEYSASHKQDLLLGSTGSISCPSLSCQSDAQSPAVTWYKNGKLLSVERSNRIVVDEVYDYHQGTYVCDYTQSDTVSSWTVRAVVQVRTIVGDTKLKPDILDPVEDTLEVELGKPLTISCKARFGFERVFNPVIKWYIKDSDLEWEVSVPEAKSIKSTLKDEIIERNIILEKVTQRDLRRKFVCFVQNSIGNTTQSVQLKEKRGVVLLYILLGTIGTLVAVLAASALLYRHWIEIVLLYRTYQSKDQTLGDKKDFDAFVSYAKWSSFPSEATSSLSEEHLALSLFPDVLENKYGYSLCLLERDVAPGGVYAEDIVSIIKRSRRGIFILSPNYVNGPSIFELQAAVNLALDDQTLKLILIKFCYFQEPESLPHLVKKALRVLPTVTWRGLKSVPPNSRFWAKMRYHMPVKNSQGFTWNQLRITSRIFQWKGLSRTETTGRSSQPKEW
Assay: cell-based or functional assay
Please respond with the number in pM and leave the unit unwritten.

Worked cases, HEK-blue EC50 (pM) - BP given:
IL-18 variant K53S, S55G (ligand) YFGKLESKLSVIRNLNDQVLFIDQGNRPLFEDMTDSDMRDNAPRTIFIISMYSDGQPRGMAVTISVKSEKISTLSSENKIISFKEMNPPDNIKDTKSDIIFFQRSVPGHDNKMQFESSSYEGYFLASEKERDLFKLILKKEDELGDRSIMFTVQNED | 33.4
IL-18 variant K53T, S55A (ligand) YFGKLESKLSVIRNLNDQVLFIDQGNRPLFEDMTDSDMRDNAPRTIFIISMYTDAQPRGMAVTISVKSEKISTLSSENKIISFKEMNPPDNIKDTKSDIIFFQRSVPGHDNKMQFESSSYEGYFLASEKERDLFKLILKKEDELGDRSIMFTVQNED | 67.4

// switching to the query binder
Task item: Form field: reported HEK-blue EC50 (pM) - BP of IL-18 variant K53H, S55V (ligand) YFGKLESKLSVIRNLNDQVLFIDQGNRPLFEDMTDSDMRDNAPRTIFIISMYHDVQPRGMAVTISVKSEKISTLSSENKIISFKEMNPPDNIKDTKSDIIFFQRSVPGHDNKMQFESSSYEGYFLASEKERDLFKLILKKEDELGDRSIMFTVQNED
Reply: 45.5
